Tested on: 2008 cells
PROTOCOL_TEXT: Growth inhibition of ovarian carcinoma cells (MTS)
Format: cell-based, human
RECORDED_CONDITIONS: read-out: GI50 2008 48 h; 48 h; Table II prints no unit
ASSAY_METRIC: GI50 (µM)
The figure you give is taken to be in µM; do not add the unit.

Would you please look over these solved cases?
MOLECULE	UNITS_LABEL	GI50
COc1cc(/C=C\CC/C=C/C=C(\C)CCC(O)c2cc3ccccc3s2)cc(OC)c1OC (stereo not shown)	µM	0.314
COc1cc(/C=C\CC/C=C/C=C(\C)CCC(O)c2cccs2)cc(OC)c1OC (stereo not shown)	µM	0.38
COc1ccc(/C=C\CC/C=C/C=C(\C)CCC(O)c2cccs2)c(OC)c1 (stereo not shown)	µM	23.8

// recorded GI50 for COc1ccc(/C=C\CC/C=C/C=C(\C)CCC(O)c2cc3ccccc3o2)c(OC)c1 (stereo not shown) : 12.2

* * *

# GI50 annotations
Test system: PC-3 cells
PROTOCOL_TEXT: Growth inhibition of prostate carcinoma cells (MTS)
Type: cell-based, human
RECORDED_CONDITIONS: read-out: GI50 PC3 48 h; 48 h; Table II prints no unit

Reference set, count: 5
COMPOUND	SYSTEM	GI50
COc1ccc(/C=C\CC/C=C/C=C(\C)CCC(O)c2ccccc2OC)c(OC)c1 (stereo not drawn) [Compound 19AR5]	PC-3 cells	> 50 µM
COc1ccc(/C=C\CC/C=C/C=C(\C)CCC(O)c2cc3ccccc3s2)c(OC)c1 (stereo not drawn) [Compound 19AR4]	PC-3 cells	> 50 µM
COc1ccc(/C=C\CC/C=C/C=C(\C)CCC(O)c2ccco2)c(OC)c1 (stereo not drawn) [Compound 19AR1]	PC-3 cells	> 50 µM
COc1ccc(/C=C\CC/C=C/C=C(\C)CCC(O)c2cccs2)c(OC)c1 (stereo not drawn) [Compound 19AR2]	PC-3 cells	> 50 µM
COc1ccc(/C=C\CC/C=C/C=C(\C)CCC(O)c2cc3ccccc3o2)c(OC)c1 (stereo not drawn) [Compound 19AR3]	PC-3 cells	> 50 µM

We now examine a further compound.
Measured GI50, COc1ccc(/C=C\CC/C=C/C=C(\C)CCC(O)c2cc(OC)ccc2OC)c(OC)c1 (stereo not drawn) [Compound 19AR6] : > 50 µM

* * *

System: MDA-MB231 cells
PROTOCOL_TEXT: Growth inhibition of breast carcinoma cells (MTS)
Assay type: cell-based, human
RECORDED_CONDITIONS: 96 h; read-out: GI50 MDA-MB231 (breast) 96 h
ASSAY_METRIC: GI50

Here are 2 compounds together with their reported answers.
COMPOUND	GI50
C=CC[C@@H](CC/C(C)=C/C=C/CC/C=C\c1coc(C(C)(C)C)n1)OC [JRC2]	> 50 µM
C=CC[C@@H](CC[C@@]1(C)C[C@H]1[C@H]1C[C@@H]1CC/C=C\[C@@H]1CSC([C@@H]2C[C@@H]2C)=N1)OC [JR DCCA]	> 50 µM

Read the next record carefully.
Sample COc1cc(C=NOCC2CC2CCC(C)c2cccs2)cc(OC)c1OC (stereo not drawn) [JRoxime3] ; GI50 observed: > 50 µM

* * *

Test system: tubulin (colchicine site)
PROTOCOL_TEXT: Inhibition of [3H]colchicine binding to tubulin
Design: species or system bovine
RECORDED_CONDITIONS: 1 μM compound
ASSAY_METRIC: Percent Colchicine Binding Inhibition (CBI), 1 μM (%)
Supply the numeric figure in %, leaving out any unit text.

COMPOUND	VALUE_REPORTED
COc1ccc(/C=C\CC/C=C/C=C(\C)CCC(O)c2ccccc2OC)c(OC)c1 (centres unmarked)	−3.4

Record COc1ccc(/C=C\CC/C=C/C=C(\C)CCC(O)c2cc3ccccc3o2)c(OC)c1 (centres unmarked) . Reported Percent Colchicine Binding Inhibition (CBI), 1 μM: 0.7

Lab book: Percent Colchicine Binding Inhibition (CBI), 1 μM of COc1ccc(/C=C\CC/C=C/C=C(\C)CCC(O)c2cc(OC)ccc2OC)c(OC)c1 (centres unmarked) noted as 1.7

So, COc1ccc(/C=C\CC/C=C/C=C(\C)CCC(O)c2ccco2)c(OC)c1 (centres unmarked) ? Its Percent Colchicine Binding Inhibition (CBI), 1 μM was −4.6

Field Percent Colchicine Binding Inhibition (CBI), 1 μM (entry COc1ccc(/C=C\CC/C=C/C=C(\C)CCC(O)c2cc3ccccc3s2)c(OC)c1 (centres unmarked) ) reads 1.4
